System: KRAS PDC tumor spheroids (HUVEC+MSC), viability
TEST: Anticancer human tumor 254851-301-R-J1-PDC patient-derived colon carcinoma cell line growth inhibition [KRAS2]; active = viability on the fitted dose curve at most 10% of control; inactive = the rest
RUN_PARAMETERS: second compound 1 µM; first compound 0.01 µM
Reply using exactly one outcome from true = active, false = inactive

Exercise: Look up the recorded call for Cn1ncnc1[C@H]1c2n[nH]c(=O)c3cc(F)cc(c23)N[C@@H]1c1ccc(F)cc1 + C=CC(=O)N1CCN(c2nc(=O)n(-c3c(C)ccnc3C(C)C)c3nc(-c4c(O)cccc4F)c(F)cc23)C(C)C1 in this test.
Solution: false

Exercise: Another compound: CCN1CCN(Cc2ccc(Nc3ncc(F)c(-c4cc(F)c5nc(C)n(C(C)C)c5c4)n3)nc2)CC1 + COc1cc2nc(C)nc(NC(C)c3cc(N)cc(C(F)(F)F)c3)c2cc1OC1CCOC1
Solution: false

Exercise: Repeat with CC1COCCN1c1cc(-c2ccnn2C)c2ccnc(-c3ccn[nH]3)c2n1 (configuration not stated) + CNCc1ccccc1-c1csc(C(C)Nc2nc(C)nc3cc(OC)c(OC)cc23)c1
Solution: false

Exercise: Can you check CC1COCCN1c1cc(-c2ccnn2C)c2ccnc(-c3ccn[nH]3)c2n1 (configuration not stated) + C=CC(=O)N1CCN(c2nc(=O)n(-c3c(C)ccnc3C(C)C)c3nc(-c4c(O)cccc4F)c(F)cc23)C(C)C1 next?
Solution: false

Exercise: Same for CC(=O)OC12COC1CC(O)C1(C)C(=O)C(O)C3=C(C)C(OC(=O)C(O)C(NC(=O)OC(C)(C)C)c4ccccc4)CC(O)(C(OC(=O)c4ccccc4)C21)C3(C)C (configuration not stated) + C=CC(=O)N1CCN(c2nc(=O)n(-c3c(C)ccnc3C(C)C)c3nc(-c4c(O)cccc4F)c(F)cc23)C(C)C1
Solution: false

Exercise: Thanks! And CC(=O)Nc1cccc(-n2c(=O)n(C3CC3)c(=O)c3c(Nc4ccc(I)cc4F)n(C)c(=O)c(C)c32)c1 + CNCc1ccccc1-c1csc(C(C)Nc2nc(C)nc3cc(OC)c(OC)cc23)c1 ?
Solution: true

###

Tested on: KRAS PDC tumor spheroids (HUVEC+MSC), viability
TEST: Anticancer human tumor 254851-301-R-J1-PDC cell line growth inhibition [KRAS2];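 note: spheroids exposed to compounds for seven days before readout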
RUN_PARAMETERS: curve of first compound; second compound 10 µM
MEASURED_ENDPOINT: IC50 (nM)
Report as a plain number; the unit nM is understood.

INSERT INTO results (molecule, units, numeric_result) VALUES
  ('CC1(C)CCC(CN2CCN(c3ccc(C(=O)NS(=O)(=O)c4ccc(NCC5CCOCC5)c([N+](=O)[O-])c4)c(Oc4cnc5[nH]ccc5c4)c3)CC2)=C(c2ccc(Cl)cc2)C1 + CC1OCC2(CCN(c3cnc(Sc4ccnc(N)c4Cl)c(N)n3)CC2)C1N', 'nM', 2510);

Exercise: Can you share its IC50? I mean this molecule: Cn1nccc1Nc1nccc(-c2cc3c(s2)C(C)(C)N(CCN2CCOCC2)C3=O)n1 + COc1cc2nc(C)nc(NC(C)c3cc(N)cc(C(F)(F)F)c3)c2cc1OC1CCOC1
Solution: 445

###

System: KRAS PDC tumor spheroids (HUVEC+MSC), viability
TEST: Anticancer human tumor 254851-301-R-J1-PDC cell line growth inhibition [KRAS2];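 note: spheroids exposed to compounds for seven days before readout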
RUN_PARAMETERS: curve of first compound; second compound 1 µM
MEASURED_ENDPOINT: IC50 (nM)
State just the number; it will be interpreted in nM.

Recorded results for 4 compounds are shown here.
INSERT INTO assay_data (compound, system_tested, numeric_result) VALUES
  ('COc1cc2nccc(Oc3ccc(NC(=O)C4(C(=O)Nc5ccc(F)cc5)CC4)cc3)c2cc1OC + CNCc1ccccc1-c1csc(C(C)Nc2nc(C)nc3cc(OC)c(OC)cc23)c1', 'KRAS PDC tumor spheroids (HUVEC+MSC), viability', 6420),
  ('CC1(C)CCC(CN2CCN(c3ccc(C(=O)NS(=O)(=O)c4ccc(NCC5CCOCC5)c([N+](=O)[O-])c4)c(Oc4cnc5[nH]ccc5c4)c3)CC2)=C(c2ccc(Cl)cc2)C1 + C=CC(=O)N1CCN(c2nc(OCC3CCCN3C)nc3c2CCN(c2cccc4cccc(C)c24)C3)CC1CC#N', 'KRAS PDC tumor spheroids (HUVEC+MSC), viability', 6390),
  ('CC1COCCN1c1cc(-c2ccnn2C)c2ccnc(-c3ccn[nH]3)c2n1 (stereo unspecified) + CNCc1ccccc1-c1csc(C(C)Nc2nc(C)nc3cc(OC)c(OC)cc23)c1', 'KRAS PDC tumor spheroids (HUVEC+MSC), viability', 252),
  ('CCN1CCN(Cc2ccc(Nc3ncc(F)c(-c4cc(F)c5nc(C)n(C(C)C)c5c4)n3)nc2)CC1 + CNCc1ccccc1-c1csc(C(C)Nc2nc(C)nc3cc(OC)c(OC)cc23)c1', 'KRAS PDC tumor spheroids (HUVEC+MSC), viability', 489);

Exercise: Record request: IC50 value, item CC(C)n1nc(-c2ccc3oc(N)nc3c2)c2c(N)ncnc21 + COc1cc2nc(C)nc(NC(C)c3cc(N)cc(C(F)(F)F)c3)c2cc1OC1CCOC1
Solution: 20.7

Exercise: Do the same for CCN1CCN(Cc2ccc(Nc3ncc(F)c(-c4cc(F)c5nc(C)n(C(C)C)c5c4)n3)nc2)CC1 + CC1OCC2(CCN(c3cnc(Sc4ccnc(N)c4Cl)c(N)n3)CC2)C1N please
Solution: 336

Exercise: Now this one: COc1cc(Nc2ncc3c(n2)-c2ccc(Cl)cc2C(c2c(F)cccc2OC)=NC3)ccc1C(=O)O + C=CC(=O)N1CCN(c2nc(=O)n(-c3c(C)ccnc3C(C)C)c3nc(-c4c(O)cccc4F)c(F)cc23)C(C)C1
Solution: 59.2
